Experiment: Inhibition of Staphylococcus aureus type I signal peptidase SpsB-mediated processing of internally quenched fluorescent synthetic peptide substrate
pIC50: −log10 of the molar value. Residues, ends and D or L forms follow the SMILES beside them. *: point of attachment. Decanoyl = CCCCCCCCCC(=O)*
Tick 1 (yes) if pIC50 is 5 or greater. Tick 0 (no) if pIC50 is less than 5.

Please review the following examples before continuing.
- Compound: "CCCCCCCCCC(=O)N1CCC[C@H]1C(=O)N[C@H](C(=O)N[C@@H](C)C(=O)N[C@@H](CCCCN)C(=O)N[C@@H](C)C(=O)N1CCC[C@H]1C(=O)N[C@@H](CO)C(=O)N[C@@H](CCCCN)C(=O)N[C@H](C(=O)N[C@@H](CC(=O)O)C(=O)N[C@@H](CC(=O)O)C(=O)O)[C@@H](C)CC)[C@@H](C)O (Decanoyl-PTAKAPSKIDD-OH)"
  Label Value: "1 (yes)"
- Compound: "CCCCCCCCCC(=O)N[C@H](C(=O)N1CCC[C@H]1C(=O)N[C@H](C(=O)N[C@@H](C)C(=O)N[C@@H](CCCCN)C(=O)N[C@@H](C)C(=O)N1CCC[C@H]1C(=O)N[C@@H](CO)C(=O)N[C@@H](CCCCN)C(=O)N[C@H](C(=O)N[C@@H](CC(=O)O)C(=O)N[C@@H](CC(=O)O)C(=O)O)[C@@H](C)CC)[C@@H](C)O)[C@@H](C)O (Decanoyl-TPTAKAPSKIDD-OH)"
  Label Value: "1 (yes)"
- Compound: "CCCCCCCCCC(=O)N[C@@H](CC(C)C)C(=O)N[C@H](C(=O)N1CCC[C@H]1C(=O)N[C@H](C(=O)N[C@@H](C)C(=O)N[C@@H](CCCCN)C(=O)N[C@@H](C)C(=O)N1CCC[C@H]1C(=O)N[C@@H](CO)C(=O)N[C@@H](CCCCN)C(=O)N[C@H](C(=O)O)[C@@H](C)CC)[C@@H](C)O)[C@@H](C)O (Decanoyl-LTPTAKAPSKI-OH)"
  Label Value: "1 (yes)"
- Compound: "CCCCCCCCCC(=O)N[C@@H](CC(C)C)C(=O)N[C@H](C(=O)N1CCC[C@H]1C(=O)N[C@H](C(=O)N[C@@H](C)C(=O)N[C@@H](CCCCN)C(=O)N[C@@H](C)C(=O)N1CCC[C@H]1C(=O)N[C@@H](CO)C(=O)O)[C@@H](C)O)[C@@H](C)O (Decanoyl-LTPTAKAPS-OH)"
  Label Value: "0 (no)"

Q) Reported pIC50 at or above 5? CCCCCCCCCC(=O)N1CCC[C@H]1C(=O)N[C@H](C(=O)N[C@@H](C)C(=O)N[C@@H](CC(N)=O)C(=O)N[C@@H](C)C=O)[C@@H](C)O (Decanoyl-PTANA-aldehyde)
A) 1 (yes)

Q) Is pIC50 for CCCCCCCCCC(=O)N[C@@H](C)C(=O)N[C@@H](CCCCN)C(=O)N[C@@H](C)C(=O)N1CCC[C@H]1C(=O)N[C@@H](CO)C(=O)N[C@@H](CCCCN)C(=O)N[C@H](C(=O)N[C@@H](CC(=O)O)C(=O)N[C@@H](CC(=O)O)C(=O)O)[C@@H](C)CC (Decanoyl-AKAPSKIDD-OH) at or above 5?
A) 0 (no)

Q) Dear colleague, could you confirm whether CCCCCCCCCC(=O)N[C@@H](CC(C)C)C(=O)N[C@H](C(=O)N1CCC[C@H]1C(=O)N[C@H](C(=O)N[C@@H](C)C(=O)N[C@@H](CCCCN)C(=O)N[C@@H](C)C(=O)N1CCC[C@H]1C(=O)N[C@@H](CO)C(=O)N[C@@H](CCCCN)C(=O)N[C@H](C(=O)N[C@@H](CC(=O)O)C(=O)O)[C@@H](C)CC)[C@@H](C)O)[C@@H](C)O (Decanoyl-LTPTAKAPSKID-OH) has pIC50 at or above 5?
A) 1 (yes)

Q) pIC50 >= 5 for CCCCCCCCCC(=O)N[C@@H](CC(C)C)C(=O)N[C@H](C(=O)N1CCC[C@H]1C(=O)N[C@H](C(=O)N[C@@H](C)C(=O)N[C@@H](CCCCN)C(=O)N[C@@H](C)C(=O)N1CCC[C@H]1C(=O)N[C@@H](CO)C(=O)N[C@@H](CCCCN)C(=O)O)[C@@H](C)O)[C@@H](C)O (Decanoyl-LTPTAKAPSK-OH) ?
A) 1 (yes)

Q) Could you verify whether the entry CCCCCCCCCC(=O)N[C@@H](CC(C)C)C(=O)N[C@H](C(=O)N1CCC[C@H]1C(=O)N[C@H](C(=O)N[C@@H](C)C(=O)N[C@@H](CCCCN)C(=O)N[C@@H](C)C(=O)N1CCC[C@H]1C(=O)N[C@@H](CO)C(=O)N[C@@H](CCCCN)C(=O)N[C@H](C(=O)N[C@@H](CC(=O)O)C(=O)N[C@@H](CC(=O)O)C(=O)O)[C@@H](C)CC)[C@@H](C)O)[C@@H](C)O (Decanoyl-LTPTAKAPSKIDD-OH) shows pIC50 of no less than 5?
A) 1 (yes)

Q) Please indicate if the recorded pIC50 for CCCCCCCCCC(=O)N[C@H](C(=O)N[C@@H](C)C(=O)N[C@@H](CCCCN)C(=O)N[C@@H](C)C(=O)N1CCC[C@H]1C(=O)N[C@@H](CO)C(=O)N[C@@H](CCCCN)C(=O)N[C@H](C(=O)N[C@@H](CC(=O)O)C(=O)N[C@@H](CC(=O)O)C(=O)O)[C@@H](C)CC)[C@@H](C)O (Decanoyl-TAKAPSKIDD-OH) meets or exceeds 5.
A) 0 (no)

Q) Reported pIC50 reaches at least 5 for CC[C@H](C)[C@H](NC(=O)[C@H](CCCCN)NC(=O)[C@H](CO)NC(=O)[C@@H]1CCCN1C(=O)[C@H](C)NC(=O)[C@H](CCCCN)NC(=O)[C@H](C)NC(=O)[C@@H](NC(=O)[C@@H]1CCCN1C(=O)[C@@H](NC(=O)[C@@H](N)CC(C)C)[C@@H](C)O)[C@@H](C)O)C(=O)N[C@@H](CC(=O)O)C(=O)N[C@@H](CC(=O)O)C(=O)O (H-LTPTAKAPSKIDD-OH) ?
A) 0 (no)
